# TARGET UNDER TEST: recombinant human DPP7 (Homo sapiens, UniProt Q9UHL4)
# Construct: purchased R&D Systems
# TEST DETAILS: DPP7 inhibition, fluorogenic substrate Lys-Pro-AMC
# Format: biochemical
# CONDITION CONTEXT: recombinant human DPP7
PROPERTY LABEL: IC50 (nM)

N#C[C@@H]1C[C@H](F)CN1C(=O)CN1CC[C@H](Nc2cnc3ccccc3c2)C1
489
N#C[C@@H]1CCCN1C(=O)CN1CC[C@H](Nc2cc(F)cc3ncccc23)C1
3470
N#C[C@@H]1CCCN1C(=O)CN1CC[C@H](Nc2ccc(C(=O)Nc3ccccc3)c3ncccc23)C1
904
CN(c1ccc2ncccc2c1)C1CCN(CC(=O)N2CCC[C@H]2C#N)CC1
4330

[1] N#C[C@@H]1C[C@H](F)CN1C(=O)CN1CCC(Nc2ccc(OC(F)(F)F)c3ncccc23)CC1
[2] N#C[C@@H]1C[C@H](F)CN1C(=O)CN1CC[C@@H](Nc2c(F)ccc3ncccc23)C1
[3] N#C[C@@H]1C[C@H](F)CN1C(=O)CN1CCC(Nc2cccc3ncsc23)CC1
[4] N#C[C@@H]1C[C@H](F)CN1C(=O)CN1CCC(Nc2ccc(C(=O)Nc3ccncc3)c3ncccc23)CC1
Sort by IC50, descending. I would appreciate it if you listed the labels in the requested order.
2, 1, 3, 4

---

# TARGET UNDER TEST: recombinant human DPP8 (Homo sapiens, UniProt Q6V1X1)
# Construct: purchased PBS Bioscience
# Sequence (Q6V1X1 whole entry): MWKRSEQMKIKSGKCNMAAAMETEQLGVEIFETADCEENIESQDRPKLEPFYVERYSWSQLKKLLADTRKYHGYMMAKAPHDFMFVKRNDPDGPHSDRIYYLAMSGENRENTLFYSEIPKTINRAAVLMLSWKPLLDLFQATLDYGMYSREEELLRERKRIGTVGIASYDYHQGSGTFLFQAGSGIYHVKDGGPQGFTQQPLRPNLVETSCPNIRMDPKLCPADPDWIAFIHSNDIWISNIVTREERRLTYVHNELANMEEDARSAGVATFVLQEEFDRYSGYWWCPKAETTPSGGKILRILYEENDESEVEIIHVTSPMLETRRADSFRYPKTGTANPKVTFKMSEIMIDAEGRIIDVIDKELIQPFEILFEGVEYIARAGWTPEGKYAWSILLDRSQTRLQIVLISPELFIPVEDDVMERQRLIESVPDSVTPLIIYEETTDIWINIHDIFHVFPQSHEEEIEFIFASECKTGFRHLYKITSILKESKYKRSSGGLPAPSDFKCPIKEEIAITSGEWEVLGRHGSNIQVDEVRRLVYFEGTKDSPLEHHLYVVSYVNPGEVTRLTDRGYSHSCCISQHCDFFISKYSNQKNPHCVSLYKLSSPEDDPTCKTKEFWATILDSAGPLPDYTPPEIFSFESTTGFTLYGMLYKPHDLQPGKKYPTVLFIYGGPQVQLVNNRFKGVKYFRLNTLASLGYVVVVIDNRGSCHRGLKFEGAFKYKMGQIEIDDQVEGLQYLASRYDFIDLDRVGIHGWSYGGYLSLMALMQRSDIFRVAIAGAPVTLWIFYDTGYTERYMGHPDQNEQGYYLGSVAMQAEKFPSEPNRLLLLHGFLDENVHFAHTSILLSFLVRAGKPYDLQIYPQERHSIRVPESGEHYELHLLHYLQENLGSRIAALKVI
# TEST DETAILS: DPP8 inhibition, fluorogenic substrate Z-Ala-Pro-AMC
# Type: biochemical
# CONDITION CONTEXT: recombinant human DPP8
Measured IC50 of individual entries

Examples from the recorded data:
CN(c1ccc2cnccc2c1)C1CCN(CC(=O)N2CCC[C@H]2C#N)CC1 [Example 314]
> 100 µM
N#C[C@@H]1C[C@H](F)CN1C(=O)CN1CCC(Nc2cncc3c(Cl)cccc23)CC1 [Example 361]
≥ 100 µM

Identify measured IC50 corresponding to N#C[C@@H]1C[C@H](F)CN1C(=O)CN1CC[C@H](Nc2ccc(C(F)(F)F)c3ncccc23)C1 [Example 265]
> 100 µM

Tell us which IC50 value is on record for N#C[C@@H]1CCCN1C(=O)CN1CC[C@H](Nc2ccc3ncccc3c2)C1 [Example 230]
> 100 µM

---

# TARGET UNDER TEST: recombinant human DPP7 (Homo sapiens, UniProt Q9UHL4)
# Construct: purchased R&D Systems
# TEST DETAILS: DPP7 inhibition, fluorogenic substrate Lys-Pro-AMC
# Assay type: biochemical
# CONDITION CONTEXT: recombinant human DPP7
PROPERTY LABEL: IC50 (µM)

The following compounds have reported results that may help.
N#C[C@@H]1C[C@H](F)CN1C(=O)CN1CC[C@@H](Nc2cc(F)c3ncccc3c2)C1
0.764
COc1ccc2nccc(OC3CCN(CC(=O)N4CCC[C@H]4C#N)CC3)c2c1
9.4
CNC(=O)c1ccc(NC2CCN(CC(=O)N3C[C@@H](F)C[C@H]3C#N)CC2)c2cccnc12
0.358
N#C[C@@H]1CCCN1C(=O)CN1CC[C@@H](Nc2ccc3ncccc3c2)C1
2.34
N#C[C@@H]1C[C@H](F)CN1C(=O)CN1CCC(Oc2ccnc3ccc(C(F)(F)F)cc23)CC1
3.15

[a] N#C[C@@H]1C[C@H](F)CN1C(=O)CN1CC[C@H](Nc2cc(F)cc3ncccc23)C1
[b] N#C[C@@H]1C[C@H](F)CN1C(=O)CN1CC[C@H](Nc2cc(C(F)(F)F)c3ncccc3c2)C1
Which record shows the lower IC50: the first, a , or the second, b ? Which one? Tell me its label.
b

---

# TARGET UNDER TEST: recombinant human DPP7 (Homo sapiens, UniProt Q9UHL4)
# Construct: purchased R&D Systems
# TEST DETAILS: DPP7 inhibition, fluorogenic substrate Lys-Pro-AMC
# Type: biochemical
PROPERTY LABEL: IC50 (µM)

Known IC50 results, listed for orientation:
CN(c1cnc2ccc(F)cc2c1)[C@H]1CCN(CC(=O)N2CCC[C@H]2C#N)C1
2.55
COc1cccc2cc(N(C)[C@H]3CCN(CC(=O)N4CCC[C@H]4C#N)C3)cnc12
3.31

[A] COc1ccc2c(C(=O)N[C@H]3CCN(CC(=O)N4C[C@@H](F)C[C@H]4C#N)C3)coc2c1
[B] CN(c1cccc2ncccc12)[C@H]1CCN(CC(=O)N2CCC[C@H]2C#N)C1
Of the two listed items, A and B , which carries the larger IC50 figure? Mark your answer with the label of the selected entry.
B

[A] N#C[C@@H]1CCCN1C(=O)CN1CC[C@H](NC(=O)c2coc3ccc(F)cc23)C1
[B] Cc1cnc2cccc(NC3CCN(CC(=O)N4C[C@@H](F)C[C@H]4C#N)CC3)c2c1
[C] CN(c1cccc2cnccc12)[C@H]1CCN(CC(=O)N2CCC[C@H]2C#N)C1
Highest IC50 first, then in falling order down to the smallest. # answer = labels listed in requested order
C, A, B
(C: 10.8 µM, A: 3.37 µM, B: 0.61 µM)

[1] N#C[C@@H]1CCCN1C(=O)CN1CC[C@H](NC(=O)c2ccc3ccoc3c2)C1
[2] COc1ccc2occ(C(=O)N[C@H]3CCN(CC(=O)N4CCC[C@H]4C#N)C3)c2c1
[3] N#C[C@@H]1CCCN1C(=O)CN1CC[C@H](NC(=O)c2coc3cccc(O)c23)C1
[4] COc1ccc(NC2CCN(CC(=O)N3CCC[C@H]3C#N)CC2)c2cccnc12
Parameters: sort_field (IC50), sort_dir (desc). To answer, write out the labels according to the requested order.
4, 2, 3, 1
(4: 5.55 µM, 2: 2.2 µM, 3: 0.762 µM, 1: 0.499 µM)

---

# TARGET UNDER TEST: Recombinant human FAP (Homo sapiens, UniProt Q12884)
# Construct: purchased R&D systems
# Sequence (Q12884 1-760): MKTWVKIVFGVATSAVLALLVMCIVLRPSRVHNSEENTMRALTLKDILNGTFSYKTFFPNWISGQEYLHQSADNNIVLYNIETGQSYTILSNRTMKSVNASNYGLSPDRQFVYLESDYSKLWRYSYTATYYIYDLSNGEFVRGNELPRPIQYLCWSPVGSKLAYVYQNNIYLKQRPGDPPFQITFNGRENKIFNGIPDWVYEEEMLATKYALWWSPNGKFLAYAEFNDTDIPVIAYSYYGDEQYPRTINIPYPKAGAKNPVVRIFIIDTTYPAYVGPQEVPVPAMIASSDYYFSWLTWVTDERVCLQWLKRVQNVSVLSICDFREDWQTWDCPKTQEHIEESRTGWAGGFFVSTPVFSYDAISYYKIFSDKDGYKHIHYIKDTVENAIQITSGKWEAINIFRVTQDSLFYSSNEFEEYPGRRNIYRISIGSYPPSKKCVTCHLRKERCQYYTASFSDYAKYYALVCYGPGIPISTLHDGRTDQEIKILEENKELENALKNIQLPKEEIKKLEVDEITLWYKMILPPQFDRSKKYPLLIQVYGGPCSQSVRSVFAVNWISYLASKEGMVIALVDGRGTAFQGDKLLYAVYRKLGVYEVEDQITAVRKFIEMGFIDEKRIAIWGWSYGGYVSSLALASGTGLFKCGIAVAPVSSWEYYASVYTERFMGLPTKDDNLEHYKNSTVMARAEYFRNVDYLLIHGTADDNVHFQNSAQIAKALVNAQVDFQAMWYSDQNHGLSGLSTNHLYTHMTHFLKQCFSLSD
# TEST DETAILS: FAP inhibition, fluorogenic substrate Z-Gly-Pro-AMC
# Format: biochemical
# CONDITION CONTEXT: 25° C., Z-Gly-Pro-AMC substrate
pIC50: −log10 of the molar value.
PROPERTY LABEL: pIC50

COc1ccc2c(C(=O)N[C@H]3CCN(CC(=O)N4CCC[C@H]4C#N)C3)coc2c1 [Example 54]
8.07

[A] COc1ccc2nccc(O[C@H]3CCN(CC(=O)N4CC(F)(F)C[C@H]4C#N)C3)c2c1 [Example 103]
[B] COc1ccc2cc(N(C)[C@H]3CCN(CC(=O)N4CCC[C@H]4C#N)C3)cnc2c1 [Example 153]
Min pIC50? A | B Please reply using the label of the selected record.
B

---

# TARGET UNDER TEST: Recombinant human FAP (Homo sapiens, UniProt Q12884)
# Construct: purchased R&D systems
# TEST DETAILS: FAP inhibition, fluorogenic substrate Z-Gly-Pro-AMC
# Format: biochemical
# CONDITION CONTEXT: recombinant human FAP, substrate Z-Gly-Pro-AMC
# Method: The compounds according to the present technology were evaluated in terms of the inhibitory effect on the activity of dipeptidyl peptidases including FAP by using a substrate producing fluorescent substances upon enzymatic decomposition. […] Fluorescence intensity was measured using a microplate reader (Flexstation3, Molecular Devices) under the wavelength condition exciting at 380 nm and reading the emission at 460 nm. […]
pIC50: −log10 of the molar value.
PROPERTY LABEL: pIC50

// solved cases for pIC50 follow
N#C[C@@H]1C[C@H](F)CN1C(=O)CN1CC[C@H](Nc2cc(F)cc3ncccc23)C1
8.92
N#C[C@@H]1C[C@H](F)CN1C(=O)CN1CCC(Nc2cncc3c(Cl)cccc23)CC1
8.57

[a] Cc1ccc(N[C@H]2CCN(CC(=O)N3CCC[C@H]3C#N)C2)c2cccnc12
[b] CN(c1ccc2ccccc2n1)C1CCN(CC(=O)N2CCC[C@H]2C#N)CC1
[c] N#Cc1ccc2c(OC3CCN(CC(=O)N4C[C@@H](F)C[C@H]4C#N)CC3)cccc2n1
[d] N#C[C@@H]1C[C@H](F)CN1C(=O)CN1CC[C@H](Nc2cccc3ncc(Cl)cc23)C1
Sort the compounds on pIC50; start with the lowest figure. Give the order by naming the labels one after another as requested.
b, c, a, d
